Tested on: Candida albicans
experiment: Antimycotic activities of similar compounds in a manner similar to Test 1, oral administration (Referential Test)
Type: in vivo, Candida albicans (in male ICR mice)
condition-set: in Mus musculus, 336 h, Dose (mg) 40, oral, read-out: T/C
property-label: response vs control in vivo at 40 mg (%)
Write down the numeric answer in % and omit the unit.

These solved cases illustrate the format of a correct answer.
- smiles-repr: "COc1c(F)cc(C(O)(Cn2cncn2)Cn2cncn2)cc1F"
  target-desc: "Candida albicans"
  unit-descriptor: "%"
  response vs control in vivo at 40 mg: 91
- smiles-repr: "OC(Cn1cncn1)(Cn1cncn1)c1ccc(F)cc1OCc1ccccc1"
  target-desc: "Candida albicans"
  unit-descriptor: "%"
  response vs control in vivo at 40 mg: 122
- smiles-repr: "OC(Cn1cncn1)(Cn1cncn1)c1ccc(-c2ccc(F)cc2)cc1"
  target-desc: "Candida albicans"
  unit-descriptor: "%"
  response vs control in vivo at 40 mg: 136

Next up:
Prompt line: Which response vs control in vivo at 40 mg value belongs to OC(Cn1cncn1)(Cn1cncn1)c1cc(F)c(OCc2ccccc2)c(F)c1 ?
Response line: 73
